- tested on: UniProt P40818
- Sequence (P40818 whole entry, looked up): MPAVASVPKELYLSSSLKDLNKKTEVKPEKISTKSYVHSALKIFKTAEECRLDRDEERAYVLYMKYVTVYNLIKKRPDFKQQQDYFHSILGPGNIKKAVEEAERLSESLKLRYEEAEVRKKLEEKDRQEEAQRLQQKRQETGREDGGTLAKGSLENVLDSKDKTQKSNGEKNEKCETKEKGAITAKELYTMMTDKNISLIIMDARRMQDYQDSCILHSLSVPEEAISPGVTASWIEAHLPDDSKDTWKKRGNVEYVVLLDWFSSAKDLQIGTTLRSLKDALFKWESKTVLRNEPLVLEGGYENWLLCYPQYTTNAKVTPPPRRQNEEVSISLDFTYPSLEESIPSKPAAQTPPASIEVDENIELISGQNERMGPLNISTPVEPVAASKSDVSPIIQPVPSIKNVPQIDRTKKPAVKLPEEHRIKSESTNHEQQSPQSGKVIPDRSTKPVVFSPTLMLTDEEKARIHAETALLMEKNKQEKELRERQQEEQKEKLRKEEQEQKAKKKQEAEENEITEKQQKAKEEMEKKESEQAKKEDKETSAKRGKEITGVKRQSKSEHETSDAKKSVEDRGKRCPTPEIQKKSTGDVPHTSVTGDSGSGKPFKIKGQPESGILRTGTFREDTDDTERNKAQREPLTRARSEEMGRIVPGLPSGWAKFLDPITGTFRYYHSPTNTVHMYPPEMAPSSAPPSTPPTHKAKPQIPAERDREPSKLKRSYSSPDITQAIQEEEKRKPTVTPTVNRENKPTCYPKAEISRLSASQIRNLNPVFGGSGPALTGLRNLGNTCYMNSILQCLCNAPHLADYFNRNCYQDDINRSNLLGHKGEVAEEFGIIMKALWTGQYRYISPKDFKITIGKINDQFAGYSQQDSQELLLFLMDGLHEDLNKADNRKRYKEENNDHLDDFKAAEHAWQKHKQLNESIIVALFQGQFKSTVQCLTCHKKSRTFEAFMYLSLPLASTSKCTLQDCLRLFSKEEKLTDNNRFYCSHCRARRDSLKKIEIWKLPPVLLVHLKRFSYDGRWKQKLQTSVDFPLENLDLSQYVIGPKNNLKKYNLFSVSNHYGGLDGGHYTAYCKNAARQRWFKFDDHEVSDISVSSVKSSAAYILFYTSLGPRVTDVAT
- assay summary: Ubiquitin-specific protease 8 inhibitors, concentration-effect, biochemical, validation of initial actives (AID 1645862);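 further: potency reflects inhibition of USP8 cleavage of a ubiquitin rhodamine substrate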
- measurement parameters: recombinant USP8 deubiquitinase activity assay
The source made the active and inactive calls. How the calls were made is not given here.
// one of YES = active, NO = inactive, no free text

compound | class
Cc1cc(Cl)ccc1NC(=O)c1cc(-c2ccncc2)n[nH]1 | NO
COc1ccc(Cl)cc1NC(=O)Cn1c(=O)n(CCCC(=O)NCc2ccc(C)cc2)c(=O)c2sccc21 | NO
N#C/C(=C\c1ccccc1F)c1nnc(N)s1 | NO
CC(C)c1ccc(NC(=O)c2cc(-c3cccnc3)n[nH]2)cc1 | YES
Cn1c(COc2cccc3cccnc23)nnc1SCC(=O)c1ccc(Cl)cc1Cl | NO
COc1ccc(-c2cc3n(c(=N)c2C#N)CCc2cc4c(cc2-3)OCO4)cc1O | NO
CCOC(=O)N1CCN(C(=O)c2ccc(CS(=O)c3ccccc3Cl)o2)CC1 (stereo not given) | NO
Cc1ccc(Nc2nc(O)c(CC(=O)Nc3ccc(C)cc3C)s2)cc1 | NO

### Prompt Could you check what this test reported for COc1ccc(-c2nc(-c3nnn(Cc4ccc(F)cc4)c3C)no2)c(OC)c1 ?
### Response NO

### Prompt How about O=S1(=O)CCN(CC2CCCO2)c2c(Oc3ccccc3)nc(F)c(Cl)c21 (stereo not given) ?
### Response NO
